- TEST_DETAILS: Plasma and brain concentrations by LC-MS/MS after systemic administration
- Assay type: in vivo, mouse
- SETTINGS: mouse, plasma; 3.0 mg/kg subcutaneous, 90 min after injection, mean (SEM); read-out: Plasma concentration
EXPERIMENTAL_READOUT: concentration at 90 min (ng/mL)
Form entry: value (ng/mL) — number only.

Exercise: Dear colleague, please send me the reported concentration at 90 min for CN(C)[C@H]1CCc2c(cccc2-c2ccccc2F)C1.Cl [(S)-5-FPT, HCl] when you can.
Key: 70

###

- TESTED_SYSTEM: 5HT7 (Homo sapiens)
- TEST_DETAILS: Affinity (Ki) at 5HT7, HEK293 cells stably expressing 5HT7
- SETTINGS: read-out: Affinity Ki ± SEM at 5HT7
EXPERIMENTAL_READOUT: Ki (nM)
Form entry: value (nM) — number only.

// worked examples, Ki included
1) CCCN(CCC)[C@H]1CCc2c(cccc2-c2ccccc2)C1.Cl [(S)-5-PPT, HCl]
34
2) CN(C)[C@H]1CCc2c(cccc2-c2cccc3ccccc23)C1 [(S)-5-NaT]
5.2
3) Cc1nn(C)c(C)c1-c1cccc2c1CC[C@H](N(C)C)C2 [(S)-AS-19, reference compound]
12
4) CN(C)[C@H]1CCc2c(cccc2-c2ccccc2Cl)C1.Cl [(S)-5-CPT, HCl]
1

// moving on: another record for Ki
Exercise: Dear colleague, please send me the reported Ki for CCCN(CCC)[C@H]1CCc2c(cccc2-c2ccccc2Cl)C1 [(S)-5-CPPT] when you can.
Key: 5.9

###

- TESTED_SYSTEM: 5HT7 (Homo sapiens, UniProt P34969)
- Sequence (P34969 whole entry): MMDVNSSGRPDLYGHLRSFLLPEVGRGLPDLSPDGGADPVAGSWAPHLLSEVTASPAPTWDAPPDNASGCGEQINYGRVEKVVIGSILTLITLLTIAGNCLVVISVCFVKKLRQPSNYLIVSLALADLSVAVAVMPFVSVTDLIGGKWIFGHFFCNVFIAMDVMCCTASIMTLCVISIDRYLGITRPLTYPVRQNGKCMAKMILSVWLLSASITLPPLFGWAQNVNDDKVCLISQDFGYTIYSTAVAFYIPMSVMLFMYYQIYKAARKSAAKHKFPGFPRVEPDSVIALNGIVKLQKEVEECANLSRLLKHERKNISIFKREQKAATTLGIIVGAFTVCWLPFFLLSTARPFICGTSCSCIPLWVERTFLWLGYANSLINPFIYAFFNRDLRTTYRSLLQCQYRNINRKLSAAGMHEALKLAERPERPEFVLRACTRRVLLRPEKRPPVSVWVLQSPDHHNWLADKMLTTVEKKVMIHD
- TEST_DETAILS: Affinity (Ki) at 5HT7, HEK293 cells stably expressing 5HT7
EXPERIMENTAL_READOUT: pKi
Scale explanation: pKi corresponds to minus log10 of a concentration expressed in moles per litre.

Exercise: Dear colleague, please send me the reported pKi for Fc1ccccc1-c1cccc2c1CCC(N1CCCC1)C2 (racemic) [(R/S)-5-FPyT] when you can.
Key: 7.29

###

- TESTED_SYSTEM: UniProt:P08908
- Sequence (P08908 whole entry): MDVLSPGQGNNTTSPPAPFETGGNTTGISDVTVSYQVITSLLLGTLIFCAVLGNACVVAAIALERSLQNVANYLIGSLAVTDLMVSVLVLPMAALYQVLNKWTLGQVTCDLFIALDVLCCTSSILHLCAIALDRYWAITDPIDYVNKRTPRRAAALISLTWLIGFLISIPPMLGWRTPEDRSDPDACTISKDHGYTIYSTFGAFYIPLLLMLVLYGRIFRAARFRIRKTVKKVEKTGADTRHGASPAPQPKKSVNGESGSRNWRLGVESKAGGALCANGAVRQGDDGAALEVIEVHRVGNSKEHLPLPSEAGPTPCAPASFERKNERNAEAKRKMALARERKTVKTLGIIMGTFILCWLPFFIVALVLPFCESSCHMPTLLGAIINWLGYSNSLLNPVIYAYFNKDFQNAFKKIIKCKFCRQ
- TEST_DETAILS: Affinity (Ki) at 5HT1A, transfected HEK cells
Reported Ki values are given for each entry in this list.
Form entry: value (nM) — number only.

1) CN(C)[C@H]1CCc2c(cccc2-c2cccn2C)C1 [(S)-5-PyT]
24
2) Fc1ccccc1-c1cccc2c1CCC(N1CCCC1)C2 (racemic) [(R/S)-5-FPyT]
1.3
3) CN(C)[C@H]1CCc2c(cccc2-c2ccccc2)C1.Cl [(S)-5-PT, HCl]
22

// moving on: another record for Ki
Exercise: Dear colleague, please send me the reported Ki for CCCN(CCC)[C@H]1CCc2c(cccc2-c2ccccc2Cl)C1 [(S)-5-CPPT] when you can.
Key: 0.6

###

- TESTED_SYSTEM: 5HT7 (Homo sapiens, UniProt P34969)
- TEST_DETAILS: Affinity (Ki) at 5HT7, HEK293 cells stably expressing 5HT7
- SETTINGS: read-out: Affinity Ki ± SEM at 5HT7; HCl
EXPERIMENTAL_READOUT: pKi
Scale explanation: pKi corresponds to minus log10 of a concentration expressed in moles per litre.

Exercise: Dear colleague, please send me the reported pKi for CN(C)[C@H]1CCc2c(cccc2-c2ccccc2F)C1.Cl [(S)-5-FPT, HCl] when you can.
Key: 8.28
